Test system: lambsquarters
Experimental Details: Test B pre-/postemergence herbicide test
Assay type: in vivo, Chenopodium album
Assay Context: 125 g ai/ha; 0 = no effect, 100 = complete control; preemergence
Endpoint Name: Lambsquarters plant response rating (0 to 100 scale)

- Molecular String: "CCn1nc(C2(C)CC2)cc1C(=O)Nc1cc(C(=O)N(C)C)ccc1F"
  Value Observed: 100
- Molecular String: "CCOC(=O)c1cccc(NC(=O)c2cc(C(C)(C)C)nn2C)n1"
  Value Observed: 100
- Molecular String: "CCOC(=O)c1cccc(NC(=O)c2cn(C(C)(C)C)nc2CC)c1"
  Value Observed: 0
- Molecular String: "CCN(C)C(=O)c1cncc(NC(=O)c2cc(C(C)(C)C)nn2CC)c1"
  Value Observed: 70
- Molecular String: "CCc1cn(C(C)(C)C)nc1C(=O)Nc1cc(C(=O)N(CC)CC)ccn1"
  Value Observed: 0
- Molecular String: "CCc1nc(C(C)(C)C)sc1C(=O)Nc1cccc(C(=O)N(C)C)c1"
  Value Observed: 100
- Molecular String: "CCn1nc(C(C)(C)C)cc1C(=O)Nc1cc(C(=S)N(C)C)ccc1F"
  Value Observed: 100
- Molecular String: "C=CCN(C)C(=O)c1cccc(NC(=O)c2cc(C(C)(C)C)nn2CC)c1"
  Value Observed: 100
- Molecular String: "CCNC(=O)c1cccc(NC(=O)c2cn(C(C)(C)C)nc2C)c1"
  Value Observed: 50
